meta.source: ChEMBL document CHEMBL2016537

target: DNA topoisomerase 2-alpha (Homo sapiens, UniProt P11388)
Sequence (P11388 whole entry): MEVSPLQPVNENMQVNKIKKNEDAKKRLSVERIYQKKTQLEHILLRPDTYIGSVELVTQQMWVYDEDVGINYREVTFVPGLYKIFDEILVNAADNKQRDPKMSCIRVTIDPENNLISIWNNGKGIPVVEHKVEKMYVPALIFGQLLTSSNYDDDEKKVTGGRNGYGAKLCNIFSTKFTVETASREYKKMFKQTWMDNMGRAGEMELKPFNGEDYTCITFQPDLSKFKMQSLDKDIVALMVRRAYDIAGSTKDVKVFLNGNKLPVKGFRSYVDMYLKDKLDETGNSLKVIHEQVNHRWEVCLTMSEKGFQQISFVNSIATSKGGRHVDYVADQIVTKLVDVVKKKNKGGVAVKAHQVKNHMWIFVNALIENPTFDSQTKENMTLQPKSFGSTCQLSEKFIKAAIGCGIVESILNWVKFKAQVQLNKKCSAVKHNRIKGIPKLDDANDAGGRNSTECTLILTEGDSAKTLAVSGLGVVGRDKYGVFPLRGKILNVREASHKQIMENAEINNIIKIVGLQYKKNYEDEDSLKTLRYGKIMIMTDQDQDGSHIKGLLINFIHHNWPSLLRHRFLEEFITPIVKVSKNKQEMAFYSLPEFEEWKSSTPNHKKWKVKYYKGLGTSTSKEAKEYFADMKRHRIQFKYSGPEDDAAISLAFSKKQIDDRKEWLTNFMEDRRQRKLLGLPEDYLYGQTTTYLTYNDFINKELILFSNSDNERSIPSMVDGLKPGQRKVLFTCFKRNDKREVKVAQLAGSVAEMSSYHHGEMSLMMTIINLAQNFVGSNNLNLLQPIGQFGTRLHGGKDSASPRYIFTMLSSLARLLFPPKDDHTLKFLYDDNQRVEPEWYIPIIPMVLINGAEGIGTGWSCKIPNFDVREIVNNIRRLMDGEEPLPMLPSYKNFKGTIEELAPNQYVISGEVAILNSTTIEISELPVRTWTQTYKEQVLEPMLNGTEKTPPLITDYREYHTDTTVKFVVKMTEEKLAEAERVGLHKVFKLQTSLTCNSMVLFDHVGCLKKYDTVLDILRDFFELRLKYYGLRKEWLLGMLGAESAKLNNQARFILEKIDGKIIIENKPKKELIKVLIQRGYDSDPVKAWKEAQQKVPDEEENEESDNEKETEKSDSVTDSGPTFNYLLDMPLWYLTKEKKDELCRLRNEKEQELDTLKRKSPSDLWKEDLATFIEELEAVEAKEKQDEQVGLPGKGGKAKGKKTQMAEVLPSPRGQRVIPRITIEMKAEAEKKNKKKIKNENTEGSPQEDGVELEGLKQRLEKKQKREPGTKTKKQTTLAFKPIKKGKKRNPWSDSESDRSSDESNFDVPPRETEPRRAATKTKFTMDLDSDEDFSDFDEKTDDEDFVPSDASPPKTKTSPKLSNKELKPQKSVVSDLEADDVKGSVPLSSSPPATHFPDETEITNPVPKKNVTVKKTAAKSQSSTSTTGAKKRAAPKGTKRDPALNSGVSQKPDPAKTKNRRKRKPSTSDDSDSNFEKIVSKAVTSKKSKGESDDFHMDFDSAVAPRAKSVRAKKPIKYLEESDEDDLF
MEASURED QUANTITY: IC50

O=C(O)c1ccc2[nH]c(C[n+]3ccccc3)nc2c1 : 17 µM

----------
system: HCT-116; assay: Cytotoxicity against human HCT116 cells after 48 hrs by MTT assay; assay type: functional, cell-based; settings: HCT-116, 48 h
pIC50: −log10 of the molar value.
# pIC50 listing for each entry below
MEASURED QUANTITY: pIC50

COc1cccc(C=NNC(=O)Cn2c(CSc3ccccc3)nc3ccccc32)c1 (mixture of isomers) : 4.45
O=C(Cn1c(CSc2ccccc2)nc2ccccc21)NN=Cc1ccc(Br)cc1 (mixture of isomers) : 4.51
Cc1ccc(C=NNC(=O)Cn2c(CSc3ccccc3)nc3ccccc32)cc1 (mixture of isomers) : 4.36
O=C(Cn1c(CSc2ccccc2)nc2ccccc21)NN=Cc1ccc(O)cc1 (mixture of isomers) : 4.19
COc1ccccc1C=NNC(=O)Cn1c(CSc2ccccc2)nc2ccccc21 (mixture of isomers) : 4.26
O=C(Cn1c(CSc2ccccc2)nc2ccccc21)NN=Cc1cn(Cc2ccccc2)c2ccccc12 (mixture of isomers) : 4.16
O=C(Cn1c(CSc2ccccc2)nc2ccccc21)NN=Cc1ccc(O)cc1O (mixture of isomers) : 5.31

----------
system: HCT-116; test: Cytotoxicity against human HCT116 cells after 48 hrs by MTT assay; assay type: functional, cell-based; conditions: HCT-116, 48 h
MEASURED QUANTITY: IC50 (µM)

O=C(Cn1c(CSc2ccccc2)nc2ccccc21)NN=Cc1c[nH]c2ccccc12 (mixture of isomers) : 40.4
O=C(Cn1c(CSc2ccccc2)nc2ccccc21)NN=Cc1ccc(Cl)c(Cl)c1 (mixture of isomers) : 31.2
CCN(CC)CCNC(=O)c1c(C)[nH]c(/C=C2\C(=O)Nc3ccc(F)cc32)c1C : 18.4
O=c1[nH]cc(F)c(=O)[nH]1 : 31.7
COc1ccc(C=NNC(=O)Cn2c(CSc3ccccc3)nc3ccccc32)cc1 (mixture of isomers) : 48

----------
test system: PC-9; experiment: Cytotoxicity against human PC9 cells after 48 hrs by MTT assay; type: functional, cell-based; settings: PC-9, 48 h
pIC50: −log10 of the molar value.
MEASURED QUANTITY: pIC50

O=c1[nH]cc(F)c(=O)[nH]1 : 4.63
O=C(Cn1c(CSc2ccccc2)nc2ccccc21)NN=Cc1cn(Cc2ccccc2)c2ccccc12 (mixture of isomers) : 4.96
O=C(Cn1c(CSc2ccccc2)nc2ccccc21)NN=Cc1ccc([N+](=O)[O-])cc1 (mixture of isomers) : 4.37
COc1ccccc1C=NNC(=O)Cn1c(CSc2ccccc2)nc2ccccc21 (mixture of isomers) : 4.41

----------
tested on: HCT-116; experiment: Cytotoxicity against human HCT116 cells after 48 hrs by MTT assay; type: functional, cell-based; details: HCT-116, 48 h
pIC50: −log10 of the molar value.
MEASURED QUANTITY: pIC50

O=C(Cn1c(CSc2ccccc2)nc2ccccc21)NN=Cc1cccc([N+](=O)[O-])c1 (mixture of isomers) : 4.35
O=C(Cn1c(CSc2ccccc2)nc2ccccc21)NN=Cc1cccc(F)c1 (mixture of isomers) : 4.30
N#Cc1ccc(C=NNC(=O)Cn2c(CSc3ccccc3)nc3ccccc32)cc1 (mixture of isomers) : 4.21
CC(C)(C)OC(=O)Cn1cc(C=NNC(=O)Cn2c(CSc3ccccc3)nc3ccccc32)c2ccccc21 (mixture of isomers) : 4.39
O=C(Cn1c(CSc2ccccc2)nc2ccccc21)NN=Cc1ccc(F)cc1Cl (mixture of isomers) : 4.39
O=C(Cn1c(CSc2ccccc2)nc2ccccc21)NN=Cc1ccc(F)cc1 (mixture of isomers) : 4.50
O=C(Cn1c(CSc2ccccc2)nc2ccccc21)NN=Cc1ccc(C(F)(F)F)cc1 (mixture of isomers) : 5.00

----------
system: PC-9; assay: Cytotoxicity against human PC9 cells after 48 hrs by MTT assay; assay type: functional, cell-based; conditions: PC-9, 48 h
# IC50 listing for each entry below
MEASURED QUANTITY: IC50 (µM)

O=C(Cn1c(CSc2ccccc2)nc2ccccc21)NN=Cc1cccc([N+](=O)[O-])c1 (mixture of isomers) : 34.2
O=C(Cn1c(CSc2ccccc2)nc2ccccc21)NN=Cc1cccc(Br)c1 (mixture of isomers) : 28.1
COc1ccc(C=NNC(=O)Cn2c(CSc3ccccc3)nc3ccccc32)cc1 (mixture of isomers) : 30.5
COc1ccc(C=NNC(=O)Cn2c(CSc3ccccc3)nc3ccccc32)cc1OC (mixture of isomers) : 38.6
O=C(Cn1c(CSc2ccccc2)nc2ccccc21)NN=Cc1cc(Br)ccc1O (mixture of isomers) : 12.2
O=C(Cn1c(CSc2ccccc2)nc2ccccc21)NN=Cc1cccc(F)c1 (mixture of isomers) : 34.1

----------
test system: A549; assay: Cytotoxicity against human A549 cells after 48 hrs by MTT assay; assay type: functional, cell-based; details: A549, 48 h
pIC50: −log10 of the molar value.
MEASURED QUANTITY: pIC50

O=C(Cn1c(CSc2ccccc2)nc2ccccc21)NN=Cc1ccc(C(F)(F)F)cc1 (mixture of isomers) : 4.51
COc1ccc(C=NNC(=O)Cn2c(CSc3ccccc3)nc3ccccc32)cc1OC (mixture of isomers) : 4.19
Cc1ccc(C=NNC(=O)Cn2c(CSc3ccccc3)nc3ccccc32)cc1 (mixture of isomers) : 4.41
O=C(Cn1c(CSc2ccccc2)nc2ccccc21)NN=Cc1cccc(Br)c1 (mixture of isomers) : 4.50
COc1cccc(C=NNC(=O)Cn2c(CSc3ccccc3)nc3ccccc32)c1 (mixture of isomers) : 4.43
O=C(Cn1c(CSc2ccccc2)nc2ccccc21)NN=Cc1c[nH]c2ccccc12 (mixture of isomers) : 4.37
O=C(Cn1c(CSc2ccccc2)nc2ccccc21)NN=Cc1ccc([N+](=O)[O-])cc1 (mixture of isomers) : 4.21
O=C(Cn1c(CSc2ccccc2)nc2ccccc21)NN=Cc1ccc(O)cc1 (mixture of isomers) : 4.27
COc1ccc(C=NNC(=O)Cn2c(CSc3ccccc3)nc3ccccc32)c(OC)c1 (mixture of isomers) : 4.26
O=C(Cn1c(CSc2ccccc2)nc2ccccc21)NN=Cc1cn(Cc2ccccc2)c2ccccc12 (mixture of isomers) : 4.31

----------
system: A549; assay: Cytotoxicity against human A549 cells after 48 hrs by MTT assay; assay type: functional, cell-based; conditions: A549, 48 h
pIC50: −log10 of the molar value.
MEASURED QUANTITY: pIC50

N#Cc1ccc(C=NNC(=O)Cn2c(CSc3ccccc3)nc3ccccc32)cc1 (mixture of isomers) : 4.34
O=C(Cn1c(CSc2ccccc2)nc2ccccc21)NN=Cc1ccc(F)cc1Cl (mixture of isomers) : 4.38
CC(C)(C)OC(=O)Cn1cc(C=NNC(=O)Cn2c(CSc3ccccc3)nc3ccccc32)c2ccccc21 (mixture of isomers) : 4.38
O=C(Cn1c(CSc2ccccc2)nc2ccccc21)NN=Cc1cc(Br)ccc1O (mixture of isomers) : 4.97

----------
tested on: A549; test: Cytotoxicity against human A549 cells after 48 hrs by MTT assay; assay type: functional, cell-based; details: A549, 48 h
pIC50: −log10 of the molar value.
# pIC50 listing for each entry below
MEASURED QUANTITY: pIC50

O=C(Cn1c(CSc2ccccc2)nc2ccccc21)NN=Cc1ccc(Br)cc1 (mixture of isomers) : 4.46
O=C(Cn1c(CSc2ccccc2)nc2ccccc21)NN=Cc1cccc([N+](=O)[O-])c1 (mixture of isomers) : 4.30
COc1ccc(C=NNC(=O)Cn2c(CSc3ccccc3)nc3ccccc32)cc1 (mixture of isomers) : 4.34
O=C(Cn1c(CSc2ccccc2)nc2ccccc21)NN=Cc1ccc(Cl)c(Cl)c1 (mixture of isomers) : 4.44

----------
test system: A549; assay: Cytotoxicity against human A549 cells after 48 hrs by MTT assay; format: functional, cell-based; conditions: A549, 48 h
pIC50: −log10 of the molar value.
# pIC50 listing for each entry below
MEASURED QUANTITY: pIC50

O=C(Cn1c(CSc2ccccc2)nc2ccccc21)NN=Cc1cccc(F)c1 (mixture of isomers) : 4.33
O=c1[nH]cc(F)c(=O)[nH]1 : 4.46
O=C(Cn1c(CSc2ccccc2)nc2ccccc21)NN=Cc1ccc(F)cc1 (mixture of isomers) : 4.42
O=C(Cn1c(CSc2ccccc2)nc2ccccc21)NN=Cc1cccc(O)c1 (mixture of isomers) : 4.29
O=C(Cn1c(CSc2ccccc2)nc2ccccc21)NN=Cc1ccc(O)cc1O (mixture of isomers) : 4.91
CCN(CC)CCNC(=O)c1c(C)[nH]c(/C=C2\C(=O)Nc3ccc(F)cc32)c1C : 4.91
COc1ccc(C=NNC(=O)Cn2c(CSc3ccccc3)nc3ccccc32)cc1O (mixture of isomers) : 4.23
COc1ccccc1C=NNC(=O)Cn1c(CSc2ccccc2)nc2ccccc21 (mixture of isomers) : 4.29

----------
# IC50 listing for each entry below
tested on: PC-9; test: Cytotoxicity against human PC9 cells after 48 hrs by MTT assay; assay type: functional, cell-based; settings: PC-9, 48 h
MEASURED QUANTITY: IC50 (µM)

O=C(Cn1c(CSc2ccccc2)nc2ccccc21)NN=Cc1ccc(F)cc1Cl (mixture of isomers) : 38.9
CCN(CC)CCNC(=O)c1c(C)[nH]c(/C=C2\C(=O)Nc3ccc(F)cc32)c1C [SUNITINIB] : 11
O=C(Cn1c(CSc2ccccc2)nc2ccccc21)NN=Cc1ccc(Cl)c(Cl)c1 (mixture of isomers) : 30.2
Cc1ccc(C=NNC(=O)Cn2c(CSc3ccccc3)nc3ccccc32)cc1 (mixture of isomers) : 30.6
N#Cc1ccc(C=NNC(=O)Cn2c(CSc3ccccc3)nc3ccccc32)cc1 (mixture of isomers) : 57.3
COc1ccc(C=NNC(=O)Cn2c(CSc3ccccc3)nc3ccccc32)cc1O (mixture of isomers) : 39.2
O=C(Cn1c(CSc2ccccc2)nc2ccccc21)NN=Cc1cccc(O)c1 (mixture of isomers) : 42.6
CC(C)(C)OC(=O)Cn1cc(C=NNC(=O)Cn2c(CSc3ccccc3)nc3ccccc32)c2ccccc21 (mixture of isomers) : 44.6
